Values were extracted from patent US20210196796A1.

studyTarget: T1, orthogonal hCD122 receptor (hoRb), hCD122 with H133D and Y134F (human, UniProt P14784 27-550); note: reference of the scale not given here
T1 sequence: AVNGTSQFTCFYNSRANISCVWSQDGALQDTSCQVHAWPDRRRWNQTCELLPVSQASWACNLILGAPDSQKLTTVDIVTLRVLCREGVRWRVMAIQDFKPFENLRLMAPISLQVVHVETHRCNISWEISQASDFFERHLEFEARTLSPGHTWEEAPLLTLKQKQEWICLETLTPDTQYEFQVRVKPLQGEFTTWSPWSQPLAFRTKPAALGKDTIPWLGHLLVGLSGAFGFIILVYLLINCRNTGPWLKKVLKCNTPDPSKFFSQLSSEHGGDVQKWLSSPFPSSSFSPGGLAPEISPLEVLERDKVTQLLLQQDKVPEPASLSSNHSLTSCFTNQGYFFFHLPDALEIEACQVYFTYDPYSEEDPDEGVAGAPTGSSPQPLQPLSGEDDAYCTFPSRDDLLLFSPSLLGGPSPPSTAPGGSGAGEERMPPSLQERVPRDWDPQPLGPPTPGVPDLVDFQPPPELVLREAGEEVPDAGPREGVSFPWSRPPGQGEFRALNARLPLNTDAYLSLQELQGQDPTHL
protocolDetails: cell-based or functional assay
recordedEndpoint: Relative Proliferation Fold Change NKL 1:2 (fold)

- binder: "ΔL19, SQ_LKA (ligand) APTSSSTKKTQLQLSQLLLLKAILNGINNYKNPKLTRMLTFKFYMPKKATELKHLQCLEEELKPLEEVLNLAQSKNFHLRPRDLISNINVIVLELKGSETTFMCEYADETATIVEFLNRWITFCQSIISTLT"
  unitText: "fold"
  experimentalValue: 0.49
- binder: "Q126E, SQVLKA (ligand) APTSSSTKKTQLQLSQLLVLLKAILNGINNYKNPKLTRMLTFKFYMPKKATELKHLQCLEEELKPLEEVLNLAQSKNFHLRPRDLISNINVIVLELKGSETTFMCEYADETATIVEFLNRWITFCESIISTLT"
  unitText: "fold"
  experimentalValue: 1.01
- binder: "T3P, SQVLKA (ligand) APPSSSTKKTQLQLSQLLVLLKAILNGINNYKNPKLTRMLTFKFYMPKKATELKHLQCLEEELKPLEEVLNLAQSKNFHLRPRDLISNINVIVLELKGSETTFMCEYADETATIVEFLNRWITFCQSIISTLT"
  unitText: "fold"
  experimentalValue: 6.03
- binder: "SQVLKL (ligand) APTSSSTKKTQLQLSQLLVLLKLILNGINNYKNPKLTRMLTFKFYMPKKATELKHLQCLEEELKPLEEVLNLAQSKNFHLRPRDLISNINVIVLELKGSETTFMCEYADETATIVEFLNRWITFCQSIISTLT"
  unitText: "fold"
  experimentalValue: 4.69
